Tested on: Providencia rettgeri
Experiment: Binding affinity to Providencia rettgeri NCTC 7475 aminopeptidase assessed as fluorescent colonies after 24 hrs by fluorescence staining
Activity calls are given as the source filed them. No cut-off for these calls is given here.
Outcome codes: TRUE (active), FALSE (inactive)

- C[C@H](N)C(=O)Nc1ccccc1-c1nc2ccccc2o1: TRUE
- NCCC(=O)Nc1ccccc1-c1nc2ccccc2o1: TRUE
- NCCC(=O)Nc1ccccc1-c1nc2ccccc2s1: FALSE
- C[C@H](N)C(=O)Nc1ccccc1-c1nc2ccccc2s1: TRUE

###

Tested on: Serratia marcescens
Experiment: Binding affinity to Serratia marcescens NCTC 10211 nitroreductase assessed as fluorescent colonies after 24 hrs by fluorescence staining
The source made the active and inactive calls. The calls are words filed in the database; no cut-off is given here.
Outcome codes: true (1) for active, false (0) for inactive

* O=[N+]([O-])c1ccccc1-c1nc2ccccc2s1 | true (1)
* O=[N+]([O-])c1ccc(F)cc1-c1nc2ccccc2s1 | true (1)
* O=[N+]([O-])c1ccc(Cl)cc1-c1nc2ccccc2s1 | true (1)
* Cn1c(-c2cc(Cl)ccc2[N+](=O)[O-])nc2ccccc21 | true (1)
* Cn1c(-c2ccccc2[N+](=O)[O-])nc2ccccc21 | false (0)
* O=[N+]([O-])c1ccc(Cl)cc1-c1nc2ccccc2o1 | true (1)
* O=[N+]([O-])c1ccccc1-c1nc2ccccc2o1 | true (1)
* COc1cc(-c2nc3ccccc3s2)c([N+](=O)[O-])cc1OC | true (1)
* O=[N+]([O-])c1ccc(F)cc1-c1nc2ccccc2o1 | true (1)
* COc1cc(-c2nc3ccccc3o2)c([N+](=O)[O-])cc1OC | true (1)

###

Tested on: Serratia marcescens
Assay: Binding affinity to Serratia marcescens NCTC 10211 aminopeptidase assessed as fluorescent colonies after 24 hrs by fluorescence staining
Calls of active or inactive are those of the source. The rule behind the calls is not given here.
outcomeMeasure: Activity

- C[C@H](N)C(=O)Nc1ccccc1-c1nc2ccccc2o1: Active
- NCCC(=O)Nc1ccccc1-c1nc2ccccc2o1: Active
- NCCC(=O)Nc1ccccc1-c1nc2ccccc2s1: Active
- C[C@H](N)C(=O)Nc1ccccc1-c1nc2ccccc2s1: Active

###

System: Providencia rettgeri
Assay: Binding affinity to Providencia rettgeri NCTC 7475 nitroreductase assessed as fluorescent colonies after 24 hrs by fluorescence staining
Activity calls are given as the source filed them. No cut-off for these calls is given here.
Classes used: true for active, false for inactive

• O=[N+]([O-])c1ccc(Cl)cc1-c1nc2ccccc2s1 = true
• COc1cc(-c2nc3ccccc3s2)c([N+](=O)[O-])cc1OC = true
• O=[N+]([O-])c1ccccc1-c1nc2ccccc2s1 = true
• O=[N+]([O-])c1ccccc1-c1nc2ccccc2o1 = true
• O=[N+]([O-])c1ccc(F)cc1-c1nc2ccccc2s1 = true
• O=[N+]([O-])c1ccc(F)cc1-c1nc2ccccc2o1 = true
• O=[N+]([O-])c1ccc(Cl)cc1-c1nc2ccccc2o1 = true
• COc1cc(-c2nc3ccccc3o2)c([N+](=O)[O-])cc1OC = true
• Cn1c(-c2ccccc2[N+](=O)[O-])nc2ccccc21 = false
• Cn1c(-c2cc(Cl)ccc2[N+](=O)[O-])nc2ccccc21 = true

###

System: Escherichia coli
Experiment: Binding affinity to Escherichia coli NCTC 10418 nitroreductase assessed as fluorescent colonies after 24 hrs by fluorescence staining
Calls of active or inactive are those of the source. The calls are words filed in the database; no cut-off is given here.
Possible outcomes: true (1) = active, false (0) = inactive

* Cn1c(-c2ccccc2[N+](=O)[O-])nc2ccccc21 | false (0)
* COc1cc(-c2nc3ccccc3s2)c([N+](=O)[O-])cc1OC | true (1)
* Cn1c(-c2cc(Cl)ccc2[N+](=O)[O-])nc2ccccc21 | true (1)
* O=[N+]([O-])c1ccccc1-c1nc2ccccc2s1 | true (1)
* O=[N+]([O-])c1ccc(Cl)cc1-c1nc2ccccc2o1 | true (1)
* O=[N+]([O-])c1ccccc1-c1nc2ccccc2o1 | true (1)
* O=[N+]([O-])c1ccc(F)cc1-c1nc2ccccc2o1 | true (1)
* O=[N+]([O-])c1ccc(F)cc1-c1nc2ccccc2s1 | true (1)
* O=[N+]([O-])c1ccc(Cl)cc1-c1nc2ccccc2s1 | true (1)
* COc1cc(-c2nc3ccccc3o2)c([N+](=O)[O-])cc1OC | true (1)
